Below, each entry is listed alongside its reported Inhibition.
Tested on: Staphylococcus aureus
Settings: Concentration 32 ug.mL-1; ASSAY_TEST Inhibition of Bacterial Growth; detection method Absorption (OD600); MEDIA CAMHB; plate type 384well; NBS; CORNING #3640; time 18 hr
Description: Antibacterial activity against Staphylococcus aureus MRSA ATCC 43300 (CO-ADD:GP_020); MIC in CAMBH media, using NBS plates, by OD(600)
Potency and affinity values are given separately.
measurement.kind: Inhibition (%)

[[record]]
compound = "C#CCN(Cc1ccccc1)c1nc(N)c(C#N)c(-c2ccccc2)c1C#N"
measurement_kind = "Inhibition"
recorded_number = 11.64

[[record]]
compound = "COc1ccc2c(c1)cc(CN(C)C)n2C"
measurement_kind = "Inhibition"
recorded_number = -0.93

[[record]]
compound = "Cl.N#Cc1c(N)nc(NCCO)c(C#N)c1-c1ccccc1"
measurement_kind = "Inhibition"
recorded_number = 32.81

[[record]]
compound = "O=C(O)c1c[nH]c2ccccc12"
measurement_kind = "Inhibition"
recorded_number = -3.47

[[record]]
compound = "CCOC(=O)C1=C(C)Oc2nc3c(c(N)c2C1c1nccn1C)CCCCC3 (stereo unspecified)"
measurement_kind = "Inhibition"
recorded_number = 10.64

[[record]]
compound = "Cn1c(C(=O)NCc2ccccc2)cc2cc(OCCCC3CCN(Cc4ccccc4)CC3)ccc21"
measurement_kind = "Inhibition"
recorded_number = 21.45

[[record]]
compound = "Cn1ccnc1C1c2ccc3cccnc3c2Oc2nc3c(c(N)c21)CCC3 (stereo unspecified)"
measurement_kind = "Inhibition"
recorded_number = 14.96

[[record]]
compound = "c1ccc(COc2ccc3[nH]ccc3c2)cc1"
measurement_kind = "Inhibition"
recorded_number = 4.67

[[record]]
compound = "CCOc1nc2nc3c(c(N)c2cc1C#N)CCCC3"
measurement_kind = "Inhibition"
recorded_number = -2.29

[[record]]
compound = "COc1ccc(C2c3ccc4ccccc4c3OC(=NBr)C2(Br)C#N)cc1 (stereo unspecified)"
measurement_kind = "Inhibition"
recorded_number = 25.41

[[record]]
compound = "N#Cc1c(N)nc(NC2CCN(Cc3ccccc3)CC2)c(C#N)c1-c1ccccc1"
measurement_kind = "Inhibition"
recorded_number = 33.89

